tested on: Eleven human cancer cell lines; experiment: MTT colorimetric assay, across the eleven human cancer cell lines; format: cell-based; settings: Homo sapiens, 72 h, read-out: In Vitro IC50 Growth Inhibitory Values, m ± SEM
endpoint.label: pIC50
Remember, pIC50 is on a log scale: it is -log10 of the molar concentration.

## Task # lookup: pIC50 of O=C(OCc1cc(COC(=O)c2ccc(O)c(F)c2)cc(COC(=O)c2ccc(O)c(F)c2)c1)c1ccc(O)c(F)c1 [DLT95-F]
## Result 4.48

## Task # lookup: pIC50 of O=C(OCc1cc(COC(=O)c2ccc(O)c(Cl)c2)cc(COC(=O)c2ccc(O)c(Cl)c2)c1)c1ccc(O)c(Cl)c1 [DLT95-Cl]
## Result 4.54

---

tested on: VM48 melanoma cells; test: MTT colorimetric assay, overall cell growth, VM48; format: cell-based, human; conditions: Homo sapiens; MTT, 72 hours of incubation; read-out: In Vitro IC50 Growth Inhibitory Values, VM48
Exercise: for every item that follows, state its recorded IC50.
Output spec: scalar in µM, unitless text.

## Task # lookup: IC50 of COc1cc(C(=O)OCC#CCOC(=O)c2ccc(O)c(OC)c2)ccc1O [DLT28]
## Result 60

## Task # lookup: IC50 of COc1ccc(C(=O)OCCCCCCOC(=O)c2ccc(OC)c(O)c2)cc1O [DLT29]
## Result 82

---

system: LoVo colon cancer cells; test: MTT colorimetric assay, overall cell growth, LoVo; assay type: cell-based, human; details: 72 hours of incubation, read-out: In Vitro IC50 Growth Inhibitory Values, LoVo
Exercise: for every item that follows, state its recorded pIC50.
Remember, pIC50 is on a log scale: it is -log10 of the molar concentration.

## Task Record lookup: for LoVo colon cancer cells, what pIC50 belongs to `COc1cc(C(=O)NCCCNC(=O)c2ccc(O)c(OC)c2)ccc1O` ?
## Result 4.49

## Task Record lookup: for LoVo colon cancer cells, what pIC50 belongs to COc1cc(C(=O)O[C@H]2CC[C@H](OC(=O)c3ccc(O)c(OC)c3)C2)ccc1O (stereo in doubt) ?
## Result 4.39

## Task Record lookup: for LoVo colon cancer cells, what pIC50 belongs to `COc1cc(C(=O)NCCCCCNC(=O)c2ccc(O)c(OC)c2)ccc1O` ?
## Result 4.39

## Task Record lookup: for LoVo colon cancer cells, what pIC50 belongs to COc1cc(C(=O)NC2CCC(NC(=O)c3ccc(O)c(OC)c3)CC2)ccc1O (mixture of isomers) ?
## Result 4.11

---

Exercise: for every item that follows, state its recorded pIC50.
system: VM48 melanoma cells; test: MTT colorimetric assay, overall cell growth, VM48; type: cell-based, human; settings: Homo sapiens; MTT, 72 hours of incubation; read-out: In Vitro IC50 Growth Inhibitory Values, VM48
Remember, pIC50 is on a log scale: it is -log10 of the molar concentration.

## Task # lookup: pIC50 of COc1cc(C(=O)OCc2ccccc2COC(=O)c2ccc(O)c(OC)c2)ccc1O [DLT24]
## Result 4.24

## Task # lookup: pIC50 of COc1cc(C(=O)OCCOC(=O)c2ccc(O)c(OC)c2)ccc1O [DLT1]
## Result 4.28

## Task # lookup: pIC50 of COc1cc(C(=O)OCc2cccc(COC(=O)c3ccc(O)c(OC)c3)c2)ccc1O [DLT25]
## Result 4.29
